# System: 120 GPCR targets, including all available orphan receptors and 27 known class A peptide receptors
# assay-overview: Peptide library screen, β-arrestin recruitment (Tango, fold change, 10 μM)
# Type: cell-based, human
# stated-conditions: Tango; receptor(s) at which the known library peptide was active, among its known GPCR target(s); validated pairings
reported-metric: Active at: (activity in b-arrestin recruitment assays)

macromolecule-sequence	obs-value
SYSMEHFRWGKPV [Peptide 93]	MC4R
FGGFTGARKSARKLANQ [Peptide 120]	NOP
VPNLPQRF [Peptide 29]	NPFF1
DEGPYRMEHFRWGSPPKD [Peptide 126]	MC4R

Now consider a different sequence.
Prompt: Retrieve Active at: (activity in b-arrestin recruitment assays) measured for WYKPAAGHSSYSVGRAAGLLSGL [Peptide 152] and print it.
Completion: NPBW1
